Entry source: patent US20260001876A1

- Test system: m-IMCD3 cells
- RUN DESCRIPTION: Inhibition of PGE2-stimulated in vitro cyst formation in m-IMCD3 cells (3D culture)
- Type: cell-based
- MEASUREMENT SETUP: Mus musculus, mIMCD3, 144 h; 10 μM; mean cyst area; 100% for (DMSO + PGE2) and 0% for DMSO control; 6 days of culture; read-out: % Cyst area* after incubation with 10 μM test compound
METRIC: activity at 10 µM (%)
Numbers only, in %.

// worked examples, activity at 10 µM included
Record request: activity at 10 µM value, item `CCN(CC)C(=O)N1Cc2ccc(N3C4CCC3CNC4)nc2C1`
-4

Record request: activity at 10 µM value, item `CC(C)(C)CC(=O)N1CCc2nc(N3C4CCC3CNC4)ccc2C1`
0

Record request: activity at 10 µM value, item `O=C(CC1CCC(F)(F)CC1)N1Cc2ccc(N3C4CCC3CNC4)nc2C1`
0

Give activity at 10 µM for all compounds that follow.
1. CC1(CC(=O)N2Cc3ccc(N4C5CCC4CNC5)nc3C2)CCCC1
2. O=C(NC1CCC(F)(F)CC1)N1CCc2nc(N3C4CCC3CNC4)ccc2C1

1. 2
2. -4

---

I'd appreciate it if you could supply % increase in PDE4D5 (long isoform) activity at 100 μM* (%) values for the items below.
- TARGET DESC: full-length human PDE4D5 (long isoform) (Homo sapiens, UniProt Q08499)
- Construct: cell lines that stably expressed the full-length human PDE4 long isoforms and the full length human PDE4B2 short isoform; made in house; cytosol fraction of the cell lysate, not purified
- Sequence (Q08499 1-745 isoform Q08499-6): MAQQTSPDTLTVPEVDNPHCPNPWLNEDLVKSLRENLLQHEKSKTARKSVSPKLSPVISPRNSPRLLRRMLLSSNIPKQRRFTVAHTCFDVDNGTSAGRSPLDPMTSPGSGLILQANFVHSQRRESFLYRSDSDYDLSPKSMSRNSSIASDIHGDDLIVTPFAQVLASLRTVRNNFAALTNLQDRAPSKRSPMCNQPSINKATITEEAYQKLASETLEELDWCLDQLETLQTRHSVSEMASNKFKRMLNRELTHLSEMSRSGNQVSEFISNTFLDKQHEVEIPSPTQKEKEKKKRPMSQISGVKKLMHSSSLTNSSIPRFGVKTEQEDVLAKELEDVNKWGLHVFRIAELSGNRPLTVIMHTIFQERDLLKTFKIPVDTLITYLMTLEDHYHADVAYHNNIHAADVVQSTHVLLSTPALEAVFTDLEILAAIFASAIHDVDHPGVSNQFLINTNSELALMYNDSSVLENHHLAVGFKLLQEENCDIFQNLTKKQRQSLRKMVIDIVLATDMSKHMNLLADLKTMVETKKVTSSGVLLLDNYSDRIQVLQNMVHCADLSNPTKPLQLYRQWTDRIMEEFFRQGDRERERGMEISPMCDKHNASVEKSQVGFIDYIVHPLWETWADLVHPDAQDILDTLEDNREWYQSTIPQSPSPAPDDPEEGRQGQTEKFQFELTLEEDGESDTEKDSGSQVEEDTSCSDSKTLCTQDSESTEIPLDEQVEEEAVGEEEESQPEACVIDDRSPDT
- RUN DESCRIPTION: PDE assay ([3H]cAMP hydrolysis) with PDE4D5 cell lysate cytosol fraction
- Type: biochemical
- MEASUREMENT SETUP: 100 μM test compound; mean % increase in counts over basal activity
One number for each entry, in %.

Record request: % increase in PDE4D5 (long isoform) activity at 100 μM* (%) value, item `O=C(Cc1ccc(F)cc1)N1CCc2nc(N3C4CCC3CNC4)ncc2C1`
28

Give % increase in PDE4D5 (long isoform) activity at 100 μM* (%) for all molecules that follow.
1. O=C(COc1ccc(F)cc1)N1CCc2nc(N3C4CCC3CNC4)ccc2C1
2. O=C(Cc1ccc(F)cc1)N1CCc2nc(N3C4CCC3CNC4)ccc2C1
3. CCN1CC2CCC(C1)N2c1ccc2c(n1)CCN(S(=O)(=O)Cc1ccc(F)cc1)C2

94
31
35

---

I'd appreciate it if you could supply activity at 10 µM values for the items below.
- System: m-IMCD3 cells
- RUN DESCRIPTION: Inhibition of PGE2-stimulated in vitro cyst formation in m-IMCD3 cells (3D culture)
- Format: cell-based
- MEASUREMENT SETUP: Mus musculus, mIMCD3, 144 h; 10 μM; mean cyst area; 100% for (DMSO + PGE2) and 0% for DMSO control; 6 days of culture; read-out: % Cyst area* after incubation with 10 μM test compound
Give bare numbers, in %.

Record request: activity at 10 µM value, item O=C(CC1CCCC1)N1CCc2nc(C3CCN(CCO)CC3)ccc2C1 [Example 115]
-3

Give activity at 10 µM for all compounds that follow.
1. CC(C)CC(=O)N1CCc2nc(N3C4CCC3CNC4)ccc2C1 [Example 43]
2. CC(C)C(C)C(=O)N1CCc2nc(N3C4CCC3CNC4)ccc2C1 (stereo not shown) [Example 44]
3. O=C(CC1CCCC1)N1CCc2nc(C3CCNCC3)ccc2C1 [Example 114]
4. O=C(N1CCCC1)N1CCc2nc(N3C4CCC3CNC4)ccc2C1 [Example 61]

-4
-2
-2
3

---

- TARGET DESC: full-length human PDE4B2 (short isoform) (Homo sapiens, UniProt Q07343)
- Construct: the full length human PDE4B2 short isoform; made in house; cytosol fraction of the cell lysate, not purified
- Sequence (Q07343 1-564 isoform Q07343-2): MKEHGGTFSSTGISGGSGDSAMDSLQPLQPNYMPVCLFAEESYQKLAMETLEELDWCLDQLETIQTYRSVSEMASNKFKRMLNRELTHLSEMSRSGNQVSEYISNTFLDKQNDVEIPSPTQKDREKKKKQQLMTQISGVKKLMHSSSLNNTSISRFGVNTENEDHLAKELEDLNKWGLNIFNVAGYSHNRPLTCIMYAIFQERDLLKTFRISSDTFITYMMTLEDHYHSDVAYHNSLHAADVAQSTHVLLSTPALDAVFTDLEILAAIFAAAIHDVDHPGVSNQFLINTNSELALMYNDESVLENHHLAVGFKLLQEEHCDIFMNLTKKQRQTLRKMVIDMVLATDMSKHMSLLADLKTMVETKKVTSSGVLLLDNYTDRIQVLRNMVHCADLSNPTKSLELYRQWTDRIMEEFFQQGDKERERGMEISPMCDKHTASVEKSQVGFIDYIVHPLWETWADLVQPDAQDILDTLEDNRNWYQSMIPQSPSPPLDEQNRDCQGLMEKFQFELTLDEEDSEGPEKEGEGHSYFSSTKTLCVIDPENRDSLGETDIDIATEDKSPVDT
- RUN DESCRIPTION: PDE assay ([3H]cAMP hydrolysis) with PDE4B2 cell lysate cytosol fraction
- Type: biochemical
- MEASUREMENT SETUP: 100 μM test compound; mean % increase in counts over basal activity
METRIC: % increase in PDE4B2 (short isoform) activity at 100 μM* (%)
Answers are plain numbers, in %.

// worked examples, % increase in PDE4B2 (short isoform) activity at 100 μM* included
Record request: % increase in PDE4B2 (short isoform) activity at 100 μM* value, item `CCN1CC2CCC(C1)N2c1ccc2c(n1)CCN(S(=O)(=O)Cc1ccc(F)cc1)C2`
2

Record request: % increase in PDE4B2 (short isoform) activity at 100 μM* value, item `O=C(Cc1ccc(F)cc1)N1CCc2nc(N3C4CCC3CNC4)ccc2C1`
−9

Record request: % increase in PDE4B2 (short isoform) activity at 100 μM* value, item `O=C(Cc1ccc(F)cc1)N1CCc2nc(N3C4CCC3CNC4)ncc2C1`
−1

The record that follows has no % increase in PDE4B2 (short isoform) activity at 100 μM* shown yet.
Record request: % increase in PDE4B2 (short isoform) activity at 100 μM* value, item `O=C(COc1ccc(F)cc1)N1CCc2nc(N3C4CCC3CNC4)ccc2C1`
6

---

- Test system: m-IMCD3 cells
- RUN DESCRIPTION: Inhibition of PGE2-stimulated in vitro cyst formation in m-IMCD3 cells (3D culture)
- Type: cell-based
- MEASUREMENT SETUP: Mus musculus, mIMCD3, 144 h; 10 μM; mean cyst area; 100% for (DMSO + PGE2) and 0% for DMSO control; 6 days of culture; read-out: % Cyst area* after incubation with 10 μM test compound
- Experimental: HEK 293 and MDCK cells (Public Health England, Cell Culture Collections) were maintained in Dulbecco's Modified Eagle's Medium (DMEM) supplemented with 10% (v/v) fetal bovine serum (FBS) (Seralab), 2 mM L-glutamine and 100 U/mL penicillin streptomycin cocktail (ThermoFisher); termed complete media. Clonal HEK 293 cell lines were maintained in complete media supplemented with 0.6 mg/ml G418 (Enzo Life Sciences). […]
METRIC: activity at 10 µM (%)
Answers are plain numbers, in %.

Give activity at 10 µM for all compounds that follow.
1. O=C(CC1CCC(F)(F)CC1)N1CCc2nc(N3CCNCC3)ccc2C1
2. O=C(COc1ccccc1)N1CCc2nc(N3C4CCC3CNC4)ccc2C1
3. O=C(N1Cc2ccc(N3C4CCC3CNC4)nc2C1)C(F)(F)c1ccccc1
4. O=C(N1CCCC1)N1Cc2ccc(N3C4CCC3CNC4)nc2C1
5. CC1(CC(=O)N2CCc3nc(N4C5CCC4CNC5)ccc3C2)CCCC1

[-3, 4, -10, -2, -4]

Give activity at 10 µM for all compounds that follow.
1. O=C(CC1CCCC1)N1CCc2nc(N3CCN4CCC[C@@H]4C3)ccc2C1
2. O=C(Cc1ccc(F)cc1)N1CCc2nc(N3C4CCC3CNC4)ccc2C1
3. O=C(CC1CCC(F)(F)CC1)N1CCc2nc(N3C4CCC3CNC4)ccc2C1
4. O=C(CC1CCCC1)N1CCc2nc(N3CCN4CCC[C@H]4C3)ccc2C1

1. -6
2. -5
3. 0
4. -4

Give activity at 10 µM for all compounds that follow.
1. O=C(NC1CCC(F)(F)CC1)N1Cc2ccc(N3C4CCC3CNC4)nc2C1
2. CN(C(=O)N1CCc2nc(N3C4CCC3CNC4)ccc2C1)C1CCCC1
3. O=C(CC1CCCC1)N1CCc2nc(N3C4CCC3CNC4)ccc2C1
4. CN1CC2CCC(C1)N2c1ccc2c(n1)CN(C(=O)CC1CCC(F)(F)CC1)C2
5. O=C(C1CCCC1)N1CCc2nc(N3C4CCC3CNC4)ccc2C1

2
2
5
-3
5

---

- Test system: m-IMCD3 cells
- RUN DESCRIPTION: Inhibition of PGE2-stimulated in vitro cyst formation in m-IMCD3 cells (3D culture)
- Type: cell-based
- MEASUREMENT SETUP: Mus musculus, mIMCD3, 144 h; 10 μM; mean cyst area; 100% for (DMSO + PGE2) and 0% for DMSO control; 6 days of culture; read-out: % Cyst area* after incubation with 10 μM test compound
METRIC: activity at 10 µM
The reply must contain the numeric value and, after it, the unit.

// lookup activity at 10 µM | system=m-IMCD3 cells | key= `CN1CC2CCC(C1)N2c1ccc2c(n1)CCN(C(=O)CC1CCC(F)(F)CC1)C2`
1%

Give activity at 10 µM for all compounds that follow.
1. O=C(CC1CCCC1)N1CCc2nc(N3CCN[C@H](CO)C3)ccc2C1 (single isomer, unassigned)
2. CCN(C(=O)N1CCc2nc(N3C4CCC3CNC4)ccc2C1)C1CCCC1
3. CN1CC2CCC(C1)N2c1ccc2c(n1)CN(C(=O)NC1CCC(F)(F)CC1)C2

1: -4%; 2: 0%; 3: -5%

// lookup activity at 10 µM | system=m-IMCD3 cells | key= O=C(CC1CCCC1)N1CCc2nc(N3CCN[C@@H](CO)C3)ccc2C1 (single isomer, unassigned)
-4%
